FYI, the data here is from ChEMBL document CHEMBL1201862.

system: OVCAR-3; assay: NCI tumour cell line growth inhibition, 48 h
Active and inactive are the calls of the source. Cut-off read from the data, not from the text of the source: active = GI50 up to about 1.1 µM and inactive = higher.

| Molecule | GI50 |
| --- | --- |
| CN/N=C(\C)C(CN1CCCCC1)C(C1=C(O)c2ccccc2OC1)c1ccccc1 (stereo not given) | > 100 µM (inactive) |
| CSc1nc(C#N)c(N)n1C | > 100 µM (inactive) |
| Cc1cc(Cl)nc2ccc(Cc3ccc4nc(Cl)cc(C)c4c3)cc12 | 39.3 µM (inactive) |
| CN(C(=O)C12C3(C(=O)O)C4C5(C(=O)O)C3C1(C(=O)O)C5C42C(=O)O)C(C)(C)C (stereo not given) | > 100 µM (inactive) |
| CN(C)CCNc1nc(-c2ccc3ccccc3c2)nc2[nH]cnc12 | 7.64 µM (inactive) |
| CCc1cccc(C(C)C)c1NC(=O)CC1Sc2ccccc2NC1=O (stereo not given) | 56 µM (inactive) |
| O=C(O)/C=c1/c2ccccc2n2nc3ccccc3c12 | 33.5 µM (inactive) |
| OC(CCN1CCN(CCOC(c2ccc(F)cc2)c2ccc(F)cc2)CC1)c1ccc(Br)cc1 (stereo not given) | 3.34 µM (inactive) |
| CC(=O)O[C@@H]1C(=O)N(c2ccccc2)[C@@H]1c1cc2ccccc2c2ccccc12 | 23.2 µM (inactive) |
| CC(C)OP(=O)(NC(=S)c1ccccc1)OC(C)C | > 100 µM (inactive) |

* * *

system: UACC-257; experiment: NCI tumour cell line growth inhibition, 48 h
Activity calls are given as the source filed them. No stated cut-off is given here; in the data, active = GI50 up to about 1.1 µM and inactive = higher.
Catalogue of GI50 readings, one per entry.

| Compound | GI50 |
| --- | --- |
| CC(=O)NC(CCCN(Cc1ccccc1)C(=O)NCCCl)C(=O)NCc1ccccc1 (stereo not drawn) | > 100 µM (inactive) |
| CC(Br)C(=O)Nc1ccc(C(=O)O)c(O)c1 (stereo not drawn) | 42.4 µM (inactive) |
| Cc1cccc(/N=N/c2c(C)nn(C(=O)CC(=O)Nc3ccccc3)c2C)c1 | > 10 µM (inactive) |

* * *

Catalogue of GI50 readings, one per entry.
test system: Malme-3M; test: NCI tumour cell line growth inhibition, 48 h
Active and inactive are the calls of the source. No stated cut-off is given here; in the data, active = GI50 up to about 1.1 µM and inactive = higher.

| Compound | Subject of test | GI50 |
| --- | --- | --- |
| [O-][S+](Nc1ccccc1)c1ccc(Cl)cc1 (stereo not drawn) | Malme-3M | > 100 µM (inactive) |
| O=C(OC1C=C=CS(=O)(=O)CC#C/C=C\1)c1cnc2ccccc2n1 (stereo not drawn) | Malme-3M | > 100 µM (inactive) |
| CC(O)C(NC(=O)C(CS)NC(=O)C(CO)NC(=O)C(CCCCN)NC(=O)C(Cc1c[nH]c2ccccc12)NC(=O)C(Cc1ccc(O)cc1)NC(=O)C(CS)NC(=O)C(N)Cc1ccccc1)C(N)=O (stereo not drawn) | Malme-3M | > 25 µM (inactive) |

* * *

Catalogue of GI50 readings, one per entry.
tested on: Hs-578T; experiment: NCI tumour cell line growth inhibition, 48 h
Active and inactive are the calls of the source. No stated cut-off is given here; in the data, active = GI50 up to about 1.1 µM and inactive = higher.
Assay endpoint: GI50

| Compound | Result value |
| --- | --- |
| Cc1cccc(/N=N/c2c(C)nn(C(=O)CC(=O)Nc3ccccc3)c2C)c1 | > 100 µM (inactive) |
| CCC1C(C#N)=C(N)OC2=C1C(=O)CC(C)(C)C2 (centres undefined) | > 100 µM (inactive) |
| CCOC(=O)C(Cc1ccccc1)(Cc1ccc(O)cn1)NC(=O)c1ccccc1 (centres undefined) | 16.3 µM (inactive) |
| C[P+](c1ccccc1)(c1ccc(Cl)cc1)c1ccc(Cl)cc1 | 20.7 µM (inactive) |

* * *

Catalogue of GI50 readings, one per entry.
tested on: OVCAR-3; test: NCI tumour cell line growth inhibition, 48 h
Calls of active or inactive are those of the source. Rule as the data show it: active = GI50 up to about 1.1 µM and inactive = higher.
Assay endpoint: GI50

| Compound | Result value |
| --- | --- |
| O=c1[nH]nc(Cc2ccccc2)n1CCCl | > 100 µM (inactive) |
| O=c1[nH]nc(-c2ccc3ccccc3c2)[nH]1 | > 100 µM (inactive) |
| O=S(=O)(Nc1nc2ccccc2nc1Nc1cccc2ccccc12)c1ccccc1 | 4.67 µM (inactive) |
| N#Cc1c(-c2ccco2)cc(-c2ccccc2)nc1O | > 100 µM (inactive) |
| CCC12C=CCN3CC[C@]4(C(=C(C(=O)OC)[C@@H]1Nc1ccn(C5OC(COC(C)=O)C(OC(C)=O)C5OC(C)=O)c(=O)n1)Nc1ccccc14)C32 (stereo partly specified) | 4.37 µM (inactive) |
| N#Cc1c(=O)c2cc([N+](=O)[O-])ccc2n2c1[nH]c1ccccc12 | 3.43 µM (inactive) |
| COc1cc2c(cc1OC)-c1cc3cc(OC)c(OC)cc3n1CC2 | > 100 µM (inactive) |
| N#Cc1c2c(c(Nc3ccc(F)cc3)n3c1nc1ccccc13)CCC2 | 7.89 µM (inactive) |
| CC12CC(=O)C3C(CCC4=CC(=O)CCC43C)C1CC=C2CC(=O)O (stereo unspecified) | 98.2 µM (inactive) |
| O=S(=O)(c1cc(Cl)ccc1Cl)N1CCN(S(=O)(=O)c2cc(Cl)ccc2Cl)CC1 | > 100 µM (inactive) |
| CC(=O)CCCCO | > 100 µM (inactive) |

* * *

tested on: CCRF-CEM; assay: NCI tumour cell line growth inhibition, 48 h
The source made the active and inactive calls. No stated cut-off is given here; in the data, active = GI50 up to about 1.1 µM and inactive = higher.
Labels: true for active, false for inactive

| Molecule | Subject of test | Label |
| --- | --- | --- |
| CC(O)C(NC(=O)C(CS)NC(=O)C(CO)NC(=O)C(CCCCN)NC(=O)C(Cc1c[nH]c2ccccc12)NC(=O)C(Cc1ccc(O)cc1)NC(=O)C(CS)NC(=O)C(N)Cc1ccccc1)C(N)=O (stereo unspecified) | CCRF-CEM | false |
| COc1ccc(-c2csc3c2-n2cccc2C3=O)cc1 | CCRF-CEM | true |
| CO[C@@]12C[C@@H](CNC(=O)c3cc(Br)c[nH]3)O[C@@H]1NC(=O)N2 | CCRF-CEM | false |
| CCC(=O)NI1OC(=O)c2ccccc21 | CCRF-CEM | false |
| CSc1nc(C#N)c(N)n1C | CCRF-CEM | false |
| S=C(Nc1ccccc1)c1ccc(CN2CCCCC2)s1 | CCRF-CEM | false |
| COc1ncc(C#CC(=O)c2ccccc2)c(OC)n1 | CCRF-CEM | true |
| CCN(CC)Cc1cc(Nc2ccnc3ccc4c(nnn4C)c23)ccc1O | CCRF-CEM | false |
| Cc1c(C(=O)Nc2ccc(Cl)c(C(F)(F)F)c2)oc2cc(O)ccc2/c1=N\NC(N)=S | CCRF-CEM | false |
| [O-][S+](Nc1ccccc1)c1ccc(Cl)cc1 (stereo unspecified) | CCRF-CEM | false |
| O=C1C=CC2(C=C1)C[C@H](NC(=O)C(F)(F)F)C(=O)O2 | CCRF-CEM | false |

* * *

tested on: HCC 2998; assay: NCI tumour cell line growth inhibition, 48 h
The source made the active and inactive calls. Cut-off read from the data, not from the text of the source: active = GI50 up to about 1.1 µM and inactive = higher.
Labels: label 1 for active, label 0 for inactive

| Compound | Label |
| --- | --- |
| O=C(O)CCc1nc2ccccc2[nH]1 | label 0 |
| O=C(Nc1sccc1S(=O)(=O)c1ccc(Cl)cc1)c1ccc(F)cc1F | label 0 |
| COC(O)C(=O)c1c2c(cc3c1CCC3)CCC2 (stereo not drawn) | label 0 |
| COc1ccc2c3c(coc13)C(CCC(=O)O)CC2 (stereo not drawn) | label 0 |
| COc1ccc(/N=C2/C(=N/c3ccc(OC)cc3)N(c3ccccc3)C(=S)N2N=C=C2Sc3ccccc3N2C)cc1 | label 0 |
| CNCCCNc1c2ccccc2nc2cccc([N+](=O)[O-])c12 | label 1 |
| COC(=N)C12C(N)=NC(OC)(OC)C1(C#N)C21C(=O)N(c2ccccc2)N=C1C (stereo not drawn) | label 0 |
| O=c1cn[nH]c(=S)n1/N=C/c1c[nH]c2ccccc12 | label 0 |
| Cc1cn2c(C)csc2c1P(=O)(OC(C)C)OC(C)C | label 0 |
| CC(=NNC(=S)Nc1ccccc1)c1cccc(C(C)=NNC(=S)Nc2ccccc2)n1 | label 0 |
| COc1cc(-c2oc(/C=N/c3ccccc3)c([N+](=O)[O-])c2-c2ccc(O)c(OC)c2)ccc1O | label 0 |
| COc1cc2c(cc1OC)-c1cc3cc(OC)c(OC)cc3n1CC2 | label 0 |
| CNC(=O)CN(CC(=O)NC)C(=O)NC | label 0 |
| Cc1ccc(Nc2nc(=O)[nH]c(=O)[nH]2)cc1N | label 0 |
| Cc1cc2c(O)c(c1)COCc1cc(C)cc(c1O)COCc1cc(C)cc(c1O)COC2 | label 0 |
| O=C(O)C1C(=O)Oc2c(cccc2[N+](=O)[O-])C1O (stereo not drawn) | label 0 |
| CC(C)OP(=O)(NC(=S)c1ccccc1)OC(C)C | label 0 |
| N#CC(C#N)=Cc1c(O)ccc2ccccc12 | label 0 |
| OCCCCn1cc(Cn2ncc3c(SCc4ccccc4)ncnc32)nn1 | label 0 |
| Cc1ccc(C)c(COCCOCn2cc(Br)c(N)nc2=O)c1 | label 0 |
| Cc1ccc([S+](c2ccccc2)c2cc(C)ccc2C)cc1 (stereo not drawn) | label 0 |
| COc1ccc(Nc2nc3cc(C(F)(F)F)ccc3n3cccc23)cc1OC | label 0 |
| O=[N+]([O-])C(/C=C(\Cl)n1nnc2ccccc21)=C(/Cl)n1nnc2ccccc21 | label 0 |
